Molecular target: CDK8 (CDK8/CycC) (Homo sapiens)
Construct: purchased Invitrogen PV4402
Sequence (P49336 whole entry): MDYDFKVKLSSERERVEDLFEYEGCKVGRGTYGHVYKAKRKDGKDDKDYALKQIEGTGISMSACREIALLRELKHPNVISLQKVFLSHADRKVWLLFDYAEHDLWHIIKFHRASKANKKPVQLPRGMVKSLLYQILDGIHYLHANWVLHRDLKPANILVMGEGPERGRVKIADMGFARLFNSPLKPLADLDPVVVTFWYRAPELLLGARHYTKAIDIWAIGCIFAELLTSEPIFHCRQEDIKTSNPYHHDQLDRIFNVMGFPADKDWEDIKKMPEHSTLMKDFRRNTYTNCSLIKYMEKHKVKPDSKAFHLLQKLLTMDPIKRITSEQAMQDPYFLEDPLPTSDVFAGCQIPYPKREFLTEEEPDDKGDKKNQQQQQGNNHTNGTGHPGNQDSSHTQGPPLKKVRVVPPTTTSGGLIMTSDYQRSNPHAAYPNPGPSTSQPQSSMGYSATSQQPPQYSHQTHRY
Sequence (P24863 whole entry partner): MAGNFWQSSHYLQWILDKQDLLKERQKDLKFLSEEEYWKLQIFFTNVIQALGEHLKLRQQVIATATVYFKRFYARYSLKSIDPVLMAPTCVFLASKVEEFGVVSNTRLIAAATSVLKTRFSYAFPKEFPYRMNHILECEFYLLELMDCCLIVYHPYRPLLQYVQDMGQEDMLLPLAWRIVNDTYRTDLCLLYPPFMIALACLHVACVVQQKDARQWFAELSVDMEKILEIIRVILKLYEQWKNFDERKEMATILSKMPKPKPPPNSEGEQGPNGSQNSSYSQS
Assay: FRET based Lanthascreen binding competition assay
Where a name gives a salt, the structure may show the parent alone.
measure.name: IC50

Query :: Give IC50; test system CDK8 (CDK8/CycC) (Homo sapiens); molecule COC1CN(C(=O)c2ccc3cncc(-c4ccc5nn(CC(C)(C)O)cc5c4)c3c2)C1 [Compound 133]
Result :: 10 to 100 nM

Query :: Return reported IC50 for target or system CDK8 (CDK8/CycC) (Homo sapiens), item Cn1cc(-c2ccc(-c3cncc4ccc(C(=O)O)cc34)cc2)cn1 [Compound 95, hydrochloride] .
Result :: < 10 nM
